- System: MCF7
- ASSAY_DETAILS: Cytotoxicity against human MCF7 cells at 20 uM after 48 hrs by MTT assay
- Assay type: functional
- CONDITION_SUMMARY: MCF7, 48 h
MEASURED_PARAMETER: inhibition at 20 µM (%)
The reply should contain only the number, in %.

# example entries with known answers
Report inhibition at 20 µM, nothing else, for this compound: `CO[C@H]1O[C@H](COc2ccc3c(c2)CCCC3)[C@@H](O)[C@H](O)[C@H]1Oc1ccc2c(c1)-c1ccccc1S2(=O)=O`
2

Item `CO[C@@H]1O[C@H](COc2ccccc2)[C@@H](O)[C@H](O)[C@H]1Oc1ccc(OC2CCCCC2)cc1` : provide inhibition at 20 µM
-5

Quickly give me recorded inhibition at 20 µM for `CO[C@H]1O[C@H](COc2ccccc2)[C@@H](O)[C@H](O)[C@H]1Oc1ccc2c(c1)-c1ccccc1S2(=O)=O`
7

Identify measured inhibition at 20 µM corresponding to `CO[C@H]1O[C@H](COc2ccccc2)[C@@H](O)[C@H](O)[C@H]1Oc1ccc(OC2CCCCC2)cc1`
-9

Query compound follows.
Supply inhibition at 20 µM value. Item: `CO[C@@H]1O[C@H](COc2ccccc2)[C@@H](O)[C@H](O)[C@H]1Oc1ccc2c(c1)-c1ccccc1S2(=O)=O`
7

----------
- Tested on: MDA-MB-231
- ASSAY_DETAILS: Cytotoxicity against human MDA-MB-231 cells at 20 uM after 48 hrs by MTT assay
- Assay type: functional
- CONDITION_SUMMARY: MDA-MB-231, 48 h
# if value of inhibition at 20 µM reaches 10%, tag True; if it stays below, tag False

Form field: inhibition at 20 µM at least 10%? Entry: `CO[C@H]1O[C@H](COc2ccc3c(c2)CCCC3)[C@@H](O)[C@H](O)[C@H]1Oc1ccc2c(c1)-c1ccccc1S2(=O)=O`
True

Check if inhibition at 20 µM >= 10% (inclusive). Item: `CO[C@H]1O[C@H](COc2ccccc2)[C@@H](O)[C@H](O)[C@H]1Oc1ccc(OC2CCCCC2)cc1`
False

Test whether the compound `CO[C@@H]1O[C@H](COc2ccc3c(c2)CCCC3)[C@@H](O)[C@H](O)[C@H]1Oc1ccc2c(c1)-c1ccccc1S2(=O)=O` records inhibition at 20 µM of 10% or higher.
True

Others:
Quick check, inhibition at 20 µM >= 10%? `CO[C@@H]1O[C@H](COc2ccc3c(c2)CCCC3)[C@@H](O)[C@H](O)[C@H]1Oc1ccc(OC2CCCCC2)cc1`
False

Given the entry `CO[C@@H]1O[C@H](COc2ccccc2)[C@@H](O)[C@H](O)[C@H]1Oc1ccc2c(c1)-c1ccccc1S2(=O)=O` , answer whether its inhibition at 20 µM meets or surpasses 10%.
False

----------
- Tested on: MCF7
- ASSAY_DETAILS: Cytotoxicity against human MCF7 cells after 48 hrs by MTT assay
- Assay type: functional, cell-based
- CONDITION_SUMMARY: MCF7, 48 h
Documented pEC50 across a set of compounds
In simple prose, pEC50 is minus the logarithm base ten of a concentration in moles per litre.

Give reported pEC50 value for `CO[C@@H]1O[C@H](COc2ccc(-c3ccccc3)cc2)[C@@H](O)[C@H](O)[C@H]1Oc1ccc(OC2CCCCC2)cc1`
4.74

Here's the next entry for you.
Recall and state the measured pEC50 for `CO[C@H]1O[C@H](COc2ccc3c(c2)CCCC3)[C@@H](O)[C@H](O)[C@H]1Oc1ccc(OC2CCCCC2)cc1` .
4.77
